Assay: Phase 2 Friedreich's ataxia study, observed PK
Type: in vivo
Conditions: human, plasma, oral, 400 mg, AUC0‐8 h, geometric mean, 400 mg TID, Day 1, patients with Friedreich's ataxia
REPORTED METRIC: AUC (ng·h/mL)
Write the number in ng·h/mL without appending the unit.

// field: AUC; key: CC(C)=CCC/C(C)=C/CC/C(C)=C/CC[C@@](C)(O)CCC1=C(C)C(=O)C(C)=C(C)C1=O [Vatiquinone, alpha‐tocotrienol quinone] ; value = 2430

---

Test: Clinical PK in healthy volunteer studies
Format: in vivo, human
Details: human, in vivo, oral
REPORTED METRIC: half-life

// field: half-life; key: CC(C)=CCC/C(C)=C/CC/C(C)=C/CC[C@@](C)(O)CCC1=C(C)C(=O)C(C)=C(C)C1=O ; value = ~9 h

---

Assay: Phase 2 Friedreich's ataxia study, observed PK
Format: in vivo
Conditions: human, plasma, oral, 200 mg, Cmax, geometric mean, 200 mg TID, Day 1
REPORTED METRIC: Cmax (ng/mL)
Write the number in ng/mL without appending the unit.

// field: Cmax; key: CC(C)=CCC/C(C)=C/CC/C(C)=C/CC[C@@](C)(O)CCC1=C(C)C(=O)C(C)=C(C)C1=O ; value = 466

---

Assay: Phase 2 Friedreich's ataxia study, observed PK
Type: in vivo
Details: human, plasma, oral, 400 mg, Cmax, geometric mean, 400 mg TID, Day 1
REPORTED METRIC: Cmax
// unit must come after the numeric part

// field: Cmax; key: CC(C)=CCC/C(C)=C/CC/C(C)=C/CC[C@@](C)(O)CCC1=C(C)C(=O)C(C)=C(C)C1=O ; value = 1020 ng/mL

---

System: CYP1A2
Test: In vitro CYP1A2 induction
Format: in vitro ADME, human
Conditions: human
REPORTED METRIC: EC50 (µM)
Write the number in µM without appending the unit.

Param item: CC(C)=CCC/C(C)=C/CC/C(C)=C/CC[C@@](C)(O)CCC1=C(C)C(=O)C(C)=C(C)C1=O ; param system: CYP1A2; output EC50: 1.8

---

Test system: CYP3A4
Test: In vitro CYP3A4 induction
Assay type: in vitro ADME, human
Details: human
REPORTED METRIC: EC50 (µM)
Write the number in µM without appending the unit.

// field: EC50; key: CC(C)=CCC/C(C)=C/CC/C(C)=C/CC[C@@](C)(O)CCC1=C(C)C(=O)C(C)=C(C)C1=O ; value = 3.7

---

Assay: Phase 2 Friedreich's ataxia study, observed PK
Format: in vivo
Settings: human, plasma, oral, 200 mg, AUC0‐8 h, geometric mean, 200 mg TID, Day 1, patients with Friedreich's ataxia
REPORTED METRIC: AUC (ng·h/mL)
Write the number in ng·h/mL without appending the unit.

// field: AUC; key: CC(C)=CCC/C(C)=C/CC/C(C)=C/CC[C@@](C)(O)CCC1=C(C)C(=O)C(C)=C(C)C1=O ; value = 1030

---

Experiment: Phase 2 Friedreich's ataxia study, observed PK
Format: in vivo
Conditions: human, plasma, oral, 400 mg, Cmax, geometric mean, 400 mg TID, Day 91
REPORTED METRIC: Cmax (ng/mL)
Write the number in ng/mL without appending the unit.

// field: Cmax; key: CC(C)=CCC/C(C)=C/CC/C(C)=C/CC[C@@](C)(O)CCC1=C(C)C(=O)C(C)=C(C)C1=O [Vatiquinone, alpha‐tocotrienol quinone] ; value = 905
